target: human HDAC1 (Homo sapiens, UniProt Q13547)
Sequence (Q13547 whole entry): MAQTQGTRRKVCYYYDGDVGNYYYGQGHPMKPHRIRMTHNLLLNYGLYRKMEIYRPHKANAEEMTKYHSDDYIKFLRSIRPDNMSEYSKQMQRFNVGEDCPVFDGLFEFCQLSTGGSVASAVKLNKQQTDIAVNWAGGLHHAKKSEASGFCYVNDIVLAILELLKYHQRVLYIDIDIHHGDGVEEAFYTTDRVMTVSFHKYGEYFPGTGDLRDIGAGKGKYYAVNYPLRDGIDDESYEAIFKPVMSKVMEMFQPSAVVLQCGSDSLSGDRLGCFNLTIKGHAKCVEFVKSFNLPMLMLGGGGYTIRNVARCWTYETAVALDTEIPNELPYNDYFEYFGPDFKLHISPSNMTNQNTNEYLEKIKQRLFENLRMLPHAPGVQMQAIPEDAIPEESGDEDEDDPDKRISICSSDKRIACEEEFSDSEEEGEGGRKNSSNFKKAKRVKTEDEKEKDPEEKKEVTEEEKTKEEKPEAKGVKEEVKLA
pIC50: −log10 of the molar value.
quantity.name: pIC50

For orientation, consider the following solved cases.
[[record]]
molecule = "CNC(=O)CCCCC[C@H](NC(=O)CCc1nnc(C)[nH]1)c1ncc(-c2ccc3ccncc3c2)[nH]1 [Entry 167]"
quantity_name = "pIC50"
assay_value = "5.30 to 6.00"

[[record]]
molecule = "CNC(=O)CCCCC[C@H](NC(=O)c1cncs1)c1ncc(-c2ccc(-c3ccn(C)n3)cc2)o1 [Entry 222]"
quantity_name = "pIC50"
assay_value = "< 5.30"

[[record]]
molecule = "CNC(=O)CCCCC[C@H](NS(=O)(=O)c1cccc([N+](=O)[O-])c1)c1ncc(-c2ccc3ccccc3c2)[nH]1 [Entry 3]"
quantity_name = "pIC50"
assay_value = "> 6.00"


[in] Param readout = pIC50; param system = human HDAC1 (Homo sapiens, UniProt Q13547); param query = CNC(=O)CCCCC[C@H](NC(=O)c1cnc(CN2CCCC2)s1)c1ncc(-c2ccc(-n3cccn3)cc2)[nH]1 [Entry 141] ; response: value
[out] 5.30 to 6.00

[in] Param readout = pIC50; param system = human HDAC1 (Homo sapiens, UniProt Q13547); param query = CNC(=O)CCCCC[C@H](NC(=O)c1cnc(C)s1)c1ncc(-c2ccc(-c3ccn(C)n3)cc2)[nH]1 [Entry 17] ; response: value
[out] 5.30 to 6.00

[in] Param readout = pIC50; param system = human HDAC1 (Homo sapiens, UniProt Q13547); param query = CNC(=O)CCCCC[C@H](NC(=O)c1cnc(C)s1)c1ncc(-c2ccc3ccncc3c2)[nH]1 [Entry 49] ; response: value
[out] > 6.00

[in] Param readout = pIC50; param system = human HDAC1 (Homo sapiens, UniProt Q13547); param query = CNC(=O)CCCCC[C@H](NC(=O)c1ccccc1-n1cnnn1)c1ncc(-c2ccc3ccccc3c2)[nH]1 [Entry 87] ; response: value
[out] 5.30 to 6.00

[in] Param readout = pIC50; param system = human HDAC1 (Homo sapiens, UniProt Q13547); param query = CNC(=O)CCCCC[C@H](NC(=O)c1cncs1)c1ncc(-c2cc3ccccc3n(C)c2=O)[nH]1 [Entry 140] ; response: value
[out] 5.30 to 6.00

---

pIC50: −log10 of the molar value.
Quick record of pIC50 values for UniProt Q13547.

For orientation, consider the following solved cases.
[[record]]
compound = "CNC(=O)CCCCC[C@H](NC(=O)c1cc(-c2ccco2)n[nH]1)c1ncc(-c2ccc3ccccc3c2)[nH]1"
assay_value = "5.30 to 6.00"

[[record]]
compound = "CNC(=O)CCCCC[C@H](NC(=O)Cc1cnc2ccccc2c1)c1ncc(-c2ccc(-n3cccn3)cc2)[nH]1"
assay_value = "> 6.00"

[[record]]
compound = "CNC(=O)CCCCC[C@H](NC(=O)C1CN(C)C1)c1ncc(-c2cc3ccccc3nc2OC)[nH]1"
assay_value = "5.30 to 6.00"

[[record]]
compound = "CNC(=O)CCCCC[C@H](NC(=O)[C@H]1CCN(C)C1)c1ncc(-c2ccc3ccccc3c2)[nH]1"
assay_value = "> 6.00"

[[record]]
compound = "CNC(=O)CCCCC[C@H](NC(=O)c1cncs1)c1ncc(-c2ccc3[nH]ncc3c2)[nH]1"
assay_value = "5.30 to 6.00"

[[record]]
compound = "CNC(=O)CCCCC[C@H](NC(=O)c1cnn(C(C)C)c1)c1ncc(-c2ccc(-c3ccn(C)n3)cc2)[nH]1"
assay_value = "5.30 to 6.00"

[[record]]
compound = "CNC(=O)CCCCC[C@H](NC(=O)c1cncs1)c1ncc(-c2ccc(-c3ccccc3)cc2)[nH]1"
assay_value = "< 5.30"

[[record]]
compound = "CNC(=O)CCCCC[C@H](NC(=O)c1cncs1)c1ncc(-c2ccc3ccnc(OC)c3c2)[nH]1"
assay_value = "5.30 to 6.00"


[in] Param readout = pIC50; param system = UniProt Q13547; param query = CNC(=O)CCCCC[C@H](NC(=O)C1CC(=O)Nc2ccccc21)c1ncc(-c2ccc(-n3cccn3)cc2)[nH]1 (some centres unmarked) ; response: value
[out] 5.30 to 6.00

[in] Param readout = pIC50; param system = UniProt Q13547; param query = CCN1CCCC(C(=O)N[C@@H](CCCCCC(=O)NC)c2ncc(-c3ccc4ccccc4c3)[nH]2)C1 (some centres unmarked) ; response: value
[out] > 6.00

[in] Param readout = pIC50; param system = UniProt Q13547; param query = "CNC(=O)CCCCC[C@H](NC(=O)c1ccns1)c1ncc(-c2ccc3ccncc3c2)[nH]1" ; response: value
[out] > 6.00

[in] Param readout = pIC50; param system = UniProt Q13547; param query = "CNC(=O)CCCCC[C@H](NC(=O)c1ccc(-n2cccc2)nc1)c1ncc(-c2ccc3ccccc3c2)[nH]1" ; response: value
[out] 5.30 to 6.00

[in] Param readout = pIC50; param system = UniProt Q13547; param query = "CNC(=O)CCCCC[C@H](NC(=O)C12CCN(CC1)CC2)c1ncc(-c2ccc3cc(OC)ccc3c2)[nH]1" ; response: value
[out] > 6.00

[in] Param readout = pIC50; param system = UniProt Q13547; param query = "CNC(=O)CCCCC[C@H](NC(=O)Cn1ccnn1)c1ncc(-c2ccc(-n3cccn3)cc2)[nH]1" ; response: value
[out] < 5.30
